biological target: human GPR119 receptor (Homo sapiens, UniProt Q8TDV5); construct: host or cells: GeneBLAzer T-Rex GPR 119 CHO-K1 DA cells (CHO-K1); assay: Activity test for human GPR119 receptor (GeneBLAzer T-Rex GPR 119 CHO-K1 DA cells, fluorescence reporter); format: cell-based; conditions: test compound conc. 0.1 μM; human GPR119 CHO-K1 reporter cells, 5 hours treatment; ratio to vehicle control well; read-out: % Activation
Sequence (Q8TDV5 whole entry): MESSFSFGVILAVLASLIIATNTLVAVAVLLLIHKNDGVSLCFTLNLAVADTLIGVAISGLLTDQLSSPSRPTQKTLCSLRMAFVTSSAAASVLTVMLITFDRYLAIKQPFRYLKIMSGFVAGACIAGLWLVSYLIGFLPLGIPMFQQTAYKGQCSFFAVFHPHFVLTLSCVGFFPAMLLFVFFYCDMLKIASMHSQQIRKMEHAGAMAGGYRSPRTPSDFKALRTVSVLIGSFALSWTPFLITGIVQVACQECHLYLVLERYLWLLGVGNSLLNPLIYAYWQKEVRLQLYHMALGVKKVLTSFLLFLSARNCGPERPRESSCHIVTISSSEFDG
property: activity at 0.1 µM (%)

{"columns": ["smiles str", "activity at 0.1 µM, %"],
 "data": [
  ["CN(CCO)C(=O)c1ccc(-c2ccc(OCC3CCN(CC(C)(C)F)CC3)cc2)cc1", 135],
  ["NC(=O)[C@@H]1CCCN1C(=O)c1ccc(-c2ccc(OCC3CCN(CC4(C(F)(F)F)CCC4)CC3)nc2)cc1F", 198],
  ["CS(=O)(=O)c1ccc(-c2ccc(OCC3CCN(CC4(C(F)(F)F)CC4)CC3)cc2)cc1", 214],
  ["O=C(c1ccc(-c2ccc(OCC3CCN(CC4(C(F)(F)F)CCC4)CC3)nc2)cc1F)N1CC[C@H](O)C1", 160]
]}

[1] CN(C)C(=O)c1ccc(-c2ccc(OCC3CCN(CC(C)(C)F)CC3)cc2)cc1
[2] CCC(F)(CC)CN1CCC(COc2ccc(-c3ccc(C(=O)N4CCC[C@H]4C(N)=O)c(F)c3)cc2C#N)CC1
Enquiry: Of the two listed items, which has the higher activity at 0.1 µM? First: 1 Second: 2 Answer by quoting the chosen item's label.
Return: 2
